Data credit: PubChem BioAssay (NCATS)

# PROTOCOL DETAILS: Cell Viability - LYMP2-016 (AID 984);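 note: cells exposed to compound for 24 hours at 37 °C; nearly all actives have a fitted effect of over 55% in size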; note: potency is the fitted concentration of half-maximal effect
# REPORTED CONDITIONS: LYMP2-016 lymphoblastoid cell viability, qHTS; series mostly up to 92.2 µM
# Source text: NIH Chemical Genomics Center [NCGC] NIH Molecular Libraries Screening Centers Network [MLSCN] National Institutes of Environmental Health Sciences [NIEHS] National Toxicology Program [NTP] We have developed a 1536-well cell-based assay for quantitative high throughput screening (qHTS) against a number of cell lines to determine in vitro cytotoxicity of small molecules. […] 8. Detection; Luminescence; Viewlux plate reader […]
Records with an inconclusive call do not appear. Activity calls are given as the source filed them. Calls come from the whole dose curve; as a rule, active = well fitted cell-killing curve with a large enough effect; inconclusive = small, poorly fitted or top-dose-only effect; inactive = flat fitted curve, though single readings scatter.
VALUE KIND: Potency

Worked cases, Potency given:
ITEM SMILES | READOUT VALUE
NC(=NCCCCCCN=C(N)/N=C(\N)Nc1ccc(Cl)cc1)/N=C(\N)Nc1ccc(Cl)cc1 | 50.1 µM (active)
C=C(CC)C(=O)c1ccc(OCC(=O)O)c(Cl)c1Cl | 39.8 µM (active)
COC1=CC(=O)C[C@@H](C)[C@]12Oc1c(Cl)c(OC)cc(OC)c1C2=O | inactive
Oc1ccc(O)cc1 | inactive
CC(C)(C)CC(C)(C)c1ccc(OCCOCC[N+](C)(C)Cc2ccccc2)cc1 | 31.6 µM (active)

From here, focus on the item given below.
Which value of Potency has been reported for O=C(O)CCCCC(=O)O in the records?
inactive

====

# System: TAB165
# PROTOCOL DETAILS: qHTS profiling for inhibitors of Plasmodium falciparum proliferation (AID 504749); note: nearly all actives have a fitted effect of over 60% in size
# REPORTED CONDITIONS: P. falciparum in erythrocytes, SYBR Green DNA, 72 h; series mostly up to 28.7 µM
# Description: NIH National Institute of Allergy and Infectious Diseases [NIAID] NIH Chemical Genomics Center [NCGC] […] Because mature erythrocytes lack DNA, only Plasmodium-derived DNA is detected. NCGC Assay Protocol Summary: The SYBR Green viability assay was adapted from a method described previously (Plouffe et al., 2008). […] The following morning, fluorescence intensity at 485(14) nm excitation and 535(25) nm emission wavelengths was measured on an EnVision (Perkin Elmer) plate reader. […]
Inconclusive results are not listed. Calls of active or inactive are those of the source. Calls come from the whole dose curve; as a rule, active = well fitted inhibition curve with a large enough effect; inconclusive = small, poorly fitted or top-dose-only effect; inactive = flat fitted curve, though single readings scatter.
Returns: one label drawn from active, inactive

Recorded results for 4 compounds are shown here.
COMPOUND | LABEL VALUE
N[C@H](Cc1c[nH]c2ccccc12)C(=O)O | inactive
c1ccc(-c2ccc(C(c3ccccc3)n3ccnc3)cc2)cc1 (stereo not given) | active
Oc1c(Cl)cc(Cl)cc1Sc1cc(Cl)cc(Cl)c1O | inactive
COc1cc(OC)cc(OC)c1 | inactive

Please share the test call associated with O=C1OCCN1/N=C/c1ccc([N+](=O)[O-])o1 .
active

====

# PROTOCOL DETAILS: qHTS Assay for Identifying Gametocytocidal Compounds (AID 743244);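 note: % is set by controls: 0 for no effect and ±100 for the full control effect; actives lower the fluorescent signal which means gametocytes are killed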
# REPORTED CONDITIONS: P. falciparum 3D7 stage III-V gametocytes, alamarBlue, 72 h; hits give low values
Results filed as inconclusive are left out.
VALUE KIND: max response (%)
Provide only the numeric value, understood in %.

Worked cases, max response given:
ITEM SMILES | MEASUREMENT UNITS | READOUT VALUE
COCc1c(C(C)C)nc(C(C)C)c(/C=C/[C@@H](O)C[C@@H](O)CC(=O)O)c1-c1ccc(F)cc1 | % | -6.56
CN(C/C=C/c1ccccc1)Cc1cccc2ccccc12 | % | 6.22
COc1cc(-c2ccc(=O)[nH]n2)ccc1OC(F)F | % | -3.31
COc1ccc(CN2CCN(C(c3ccc(F)cc3)c3ccc(F)cc3)CC2)c(OC)c1OC | % | 1.04
CCN(CC)C(=O)/C(C#N)=C/c1cc(O)c(O)c([N+](=O)[O-])c1 | % | -6.8

Which value of max response has been reported for CC(=O)Nc1c(I)cc(I)c(C(=O)O)c1I in the records?
44.8

Request: Oc1cc(O)c2c(c1)O[C@H](c1ccc(O)c(O)c1)[C@H](O)C2
2.48
